Test: Pharmacokinetics after single subcutaneous dose (500 mg/kg)
Type: in vivo, BALB/c mice
Settings: BALB/c, mouse, plasma; subcutaneous 500 mg/kg vs intravenous 100 mg/kg; read-out: Absolute Bioavailability
Protocol: LC/MS/MS (HPβCD) and HPLC-UV (ORX-301) were used for analysis in the studies. The bioanalytical method for HPβCD was linear, accurate, and precise in the concentration range of 5.4 and 500 µg/ml, with an LLOQ = 5.4 µg/ml, and met all the acceptance criteria. Pharmacokinetic analysis and MTD studies were carried out in BALB/c mice purchased from Taconic Biosciences. […]
recorded endpoint: bioavailability (%)
Give just the number in %; leave the unit off.

Recorded bioavailability (compound CC(O)COC[C@H]1O[C@@H]2O[C@H]3[C@H](O)[C@@H](O)[C@@H](O[C@H]4[C@H](O)[C@@H](O)[C@@H](O[C@H]5[C@H](O)[C@@H](O)[C@@H](O[C@H]6[C@H](O)[C@@H](O)[C@@H](O[C@H]7[C@H](O)[C@@H](O)[C@@H](O[C@H]8[C@H](O)[C@@H](O)[C@@H](O[C@H]1[C@H](O)[C@H]2O)O[C@@H]8COCC(C)O)O[C@@H]7COCC(C)O)O[C@@H]6COCC(C)O)O[C@@H]5COCC(C)O)O[C@@H]4COCC(C)O)O[C@@H]3COCC(C)O (stereo partly drawn) [HPβCD, 2-hydroxypropyl-β-cyclodextrin] ): 42

----------
experiment: in vivo; conditions: BALB/c, mouse, sc, 500 mg/kg, AUClast, kidney
recorded endpoint: AUC(0-t) (µg·h/mL)
Give just the number in µg·h/mL; leave the unit off.

Recorded AUC(0-t) (molecule CC(O)COC[C@H]1O[C@@H]2O[C@H]3[C@H](O)[C@@H](O)[C@@H](O[C@H]4[C@H](O)[C@@H](O)[C@@H](O[C@H]5[C@H](O)[C@@H](O)[C@@H](O[C@H]6[C@H](O)[C@@H](O)[C@@H](O[C@H]7[C@H](O)[C@@H](O)[C@@H](O[C@H]8[C@H](O)[C@@H](O)[C@@H](O[C@H]1[C@H](O)[C@H]2O)O[C@@H]8COCC(C)O)O[C@@H]7COCC(C)O)O[C@@H]6COCC(C)O)O[C@@H]5COCC(C)O)O[C@@H]4COCC(C)O)O[C@@H]3COCC(C)O (stereo partly drawn) [HPβCD, 2-hydroxypropyl-β-cyclodextrin] ): 2950

----------
test: Pharmacokinetics after single intravenous dose (100 mg/kg); assay type: in vivo, BALB/c mice; settings: BALB/c, mouse, plasma; single IV dose 100 mg/kg; read-out: Vss
recorded endpoint: Vd (L/kg)
Give just the number in L/kg; leave the unit off.

Recorded Vd (compound CC(O)COC[C@H]1O[C@@H]2O[C@H]3[C@H](O)[C@@H](O)[C@@H](O[C@H]4[C@H](O)[C@@H](O)[C@@H](O[C@H]5[C@H](O)[C@@H](O)[C@@H](O[C@H]6[C@H](O)[C@@H](O)[C@@H](O[C@H]7[C@H](O)[C@@H](O)[C@@H](O[C@H]8[C@H](O)[C@@H](O)[C@@H](O[C@H]1[C@H](O)[C@H]2O)O[C@@H]8COCC(C)O)O[C@@H]7COCC(C)O)O[C@@H]6COCC(C)O)O[C@@H]5COCC(C)O)O[C@@H]4COCC(C)O)O[C@@H]3COCC(C)O (stereo partly drawn) [HPβCD, 2-hydroxypropyl-β-cyclodextrin] ): 0.18
